Values from the supplement of paper PMC10065799

# MEASURED_ON: Grb2 SH2 (UniProt P62993)
# METHOD_DESCRIPTION: SH2 binding enrichment of the phosphorylated peptide, bacterial display (enrichment ratio); higher = better substrate or ligand; peptides without Tyr show the background
OBSERVABLE: SH2 binding enrichment

>  <MONOMER_SEQUENCE>
IENKLYGMSDP [RET_Y1062]

>  <MEASURED_ON>
Grb2 SH2 (UniProt P62993)

>  <RESULT_NUMBER>
0.811

$$$$
>  <MONOMER_SEQUENCE>
SDGHEYIFVDP [PDGFRB_Y579_YF]

>  <MEASURED_ON>
Grb2 SH2 (UniProt P62993)

>  <RESULT_NUMBER>
0.769

$$$$
>  <MONOMER_SEQUENCE>
LEQQKYTVTVD [IKBKB_Y199]

>  <MEASURED_ON>
Grb2 SH2 (UniProt P62993)

>  <RESULT_NUMBER>
0.804

$$$$
>  <MONOMER_SEQUENCE>
SLGSPYEQPPR [PDLIM4_Y137_G138E]

>  <MEASURED_ON>
Grb2 SH2 (UniProt P62993)

>  <RESULT_NUMBER>
0.887

$$$$
>  <MONOMER_SEQUENCE>
DEDYLCREELA [POR_Y575_Y575C]

>  <MEASURED_ON>
Grb2 SH2 (UniProt P62993)

>  <RESULT_NUMBER>
0.948

$$$$
>  <MONOMER_SEQUENCE>
KDGIGYISAAE [CALM2_Y100_N98I]

>  <MEASURED_ON>
Grb2 SH2 (UniProt P62993)

>  <RESULT_NUMBER>
1.07

$$$$
>  <MONOMER_SEQUENCE>
NHYKRYNLCAE [PTEN_Y68_I67R]

>  <MEASURED_ON>
Grb2 SH2 (UniProt P62993)

>  <RESULT_NUMBER>
0.93

$$$$

====

As shown below, each of these sequences has a reported phosphorylation enrichment value.
# MEASURED_ON: EPHB1 (UniProt P54762)
# Sequence (P54762 whole entry, looked up): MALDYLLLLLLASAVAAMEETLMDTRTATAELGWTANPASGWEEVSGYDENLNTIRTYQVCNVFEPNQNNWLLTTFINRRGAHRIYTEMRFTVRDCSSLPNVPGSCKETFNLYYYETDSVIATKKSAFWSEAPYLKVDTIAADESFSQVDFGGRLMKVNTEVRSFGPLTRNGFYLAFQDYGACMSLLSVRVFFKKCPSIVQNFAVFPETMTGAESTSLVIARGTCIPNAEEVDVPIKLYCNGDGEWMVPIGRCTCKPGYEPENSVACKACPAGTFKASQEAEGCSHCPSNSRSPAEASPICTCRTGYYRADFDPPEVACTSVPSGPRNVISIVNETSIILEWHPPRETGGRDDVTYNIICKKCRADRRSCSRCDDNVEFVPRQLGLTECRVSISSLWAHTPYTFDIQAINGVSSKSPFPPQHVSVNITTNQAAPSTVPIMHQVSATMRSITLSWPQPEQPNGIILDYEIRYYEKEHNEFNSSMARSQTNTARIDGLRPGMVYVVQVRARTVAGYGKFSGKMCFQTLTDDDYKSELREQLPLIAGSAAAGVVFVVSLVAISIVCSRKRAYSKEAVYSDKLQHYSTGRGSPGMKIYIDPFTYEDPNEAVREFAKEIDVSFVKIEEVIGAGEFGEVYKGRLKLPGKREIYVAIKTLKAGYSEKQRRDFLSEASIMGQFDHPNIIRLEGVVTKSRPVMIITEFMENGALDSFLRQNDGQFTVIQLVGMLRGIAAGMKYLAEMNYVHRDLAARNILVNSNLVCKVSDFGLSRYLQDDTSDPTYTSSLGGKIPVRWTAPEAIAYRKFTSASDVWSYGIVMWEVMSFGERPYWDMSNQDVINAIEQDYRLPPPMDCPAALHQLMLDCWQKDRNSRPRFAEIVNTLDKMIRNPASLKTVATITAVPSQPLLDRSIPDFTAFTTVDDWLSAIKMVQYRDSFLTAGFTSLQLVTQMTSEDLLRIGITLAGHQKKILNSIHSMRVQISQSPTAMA
# METHOD_DESCRIPTION: phosphorylation enrichment, bacterial display (enrichment ratio); higher = better substrate or ligand; peptides without Tyr show the background
A bare number is all that is needed in reply.

Past entries and their recorded results:
>  <MONOMER_SEQUENCE>
VFDHIYTTQSD [RET_Y928_L923V]

>  <RESULT_NUMBER>
0.458

$$$$
>  <MONOMER_SEQUENCE>
DSILVYQRKEQ [USH2A_Y1909_G1911R]

>  <RESULT_NUMBER>
0.455

$$$$
>  <MONOMER_SEQUENCE>
YPLELYERVRM [PRKCG_Y312]

>  <RESULT_NUMBER>
2.02

$$$$
>  <MONOMER_SEQUENCE>
VIKDKYPQARY [APTX_Y209_K211Q]

>  <RESULT_NUMBER>
0.401

$$$$
>  <MONOMER_SEQUENCE>
FQKNIYSEEPR [LMNA_Y211_L215P]

>  <RESULT_NUMBER>
0.438

$$$$

Q: Name the reported phosphorylation enrichment value associated with the sequence VPLATYMQIYK [RPL21_Y30_R32Q]
Result: 1.98

Q: Name the reported phosphorylation enrichment value associated with the sequence TQRPFYKGGGG [TYROBP_Y112_YF]
Result: 0.221

====

# Test system: c-Src
# METHOD_DESCRIPTION: phosphorylation enrichment, bacterial display (enrichment ratio); higher = better substrate or ligand; peptides without Tyr show the background
OBSERVABLE: phosphorylation enrichment
A bare number is all that is needed in reply.

>  <MONOMER_SEQUENCE>
FEGRSYSACTT [MMP9_Y241]

>  <phosphorylation enrichment>
0.428

$$$$
>  <MONOMER_SEQUENCE>
IRRSSYEDSSL [HNF4A_Y144_T139I]

>  <phosphorylation enrichment>
0.591

$$$$
>  <MONOMER_SEQUENCE>
FLAVGYHKPYI [IDS_Y225_H229Y]

>  <phosphorylation enrichment>
0.348

$$$$
>  <MONOMER_SEQUENCE>
DVFLKHLNFAT [PDE6B_Y212_Y212H]

>  <phosphorylation enrichment>
0.374

$$$$
>  <MONOMER_SEQUENCE>
EFTPLYPMLFG [SCLY_Y280]

>  <phosphorylation enrichment>
0.475

$$$$

Q: Name the reported phosphorylation enrichment value associated with the sequence DQNVEYKGTVW [FHL1_Y117]
Result: 0.488

Q: Name the reported phosphorylation enrichment value associated with the sequence DGSALYTGSAL [COL6A3_Y524]
Result: 0.536

====

# MEASURED_ON: c-Src SH2
# METHOD_DESCRIPTION: SH2 binding enrichment of the phosphorylated peptide, bacterial display (enrichment ratio); higher = better substrate or ligand; peptides without Tyr show the background
OBSERVABLE: SH2 binding enrichment

Past entries and their recorded results:
>  <MONOMER_SEQUENCE>
QLPRGYISILV [BAG3_Y205_P209L]

>  <MEASURED_ON>
c-Src SH2

>  <OBSERVABLE>
SH2 binding enrichment

>  <RESULT_NUMBER>
0.6

$$$$
>  <MONOMER_SEQUENCE>
PLDGEHFTLQI [TP53_Y327_Y327H]

>  <MEASURED_ON>
c-Src SH2

>  <OBSERVABLE>
SH2 binding enrichment

>  <RESULT_NUMBER>
0.451

$$$$
>  <MONOMER_SEQUENCE>
FRKNIYNVKST [SYNE2_Y575_YF]

>  <MEASURED_ON>
c-Src SH2

>  <OBSERVABLE>
SH2 binding enrichment

>  <RESULT_NUMBER>
0.723

$$$$

[a] EAVKNYTDKRG [PBRM1_Y672]
[b] GIFSGYDDAWD [POLR1C_Y36_N32I_YF]
Q: // compare measured SH2 binding enrichment between a and b ; output the lower one Which one? Tell me its label.
Result: a

====

# MEASURED_ON: EPHB2 (UniProt P29323)
# Sequence (P29323 whole entry, looked up): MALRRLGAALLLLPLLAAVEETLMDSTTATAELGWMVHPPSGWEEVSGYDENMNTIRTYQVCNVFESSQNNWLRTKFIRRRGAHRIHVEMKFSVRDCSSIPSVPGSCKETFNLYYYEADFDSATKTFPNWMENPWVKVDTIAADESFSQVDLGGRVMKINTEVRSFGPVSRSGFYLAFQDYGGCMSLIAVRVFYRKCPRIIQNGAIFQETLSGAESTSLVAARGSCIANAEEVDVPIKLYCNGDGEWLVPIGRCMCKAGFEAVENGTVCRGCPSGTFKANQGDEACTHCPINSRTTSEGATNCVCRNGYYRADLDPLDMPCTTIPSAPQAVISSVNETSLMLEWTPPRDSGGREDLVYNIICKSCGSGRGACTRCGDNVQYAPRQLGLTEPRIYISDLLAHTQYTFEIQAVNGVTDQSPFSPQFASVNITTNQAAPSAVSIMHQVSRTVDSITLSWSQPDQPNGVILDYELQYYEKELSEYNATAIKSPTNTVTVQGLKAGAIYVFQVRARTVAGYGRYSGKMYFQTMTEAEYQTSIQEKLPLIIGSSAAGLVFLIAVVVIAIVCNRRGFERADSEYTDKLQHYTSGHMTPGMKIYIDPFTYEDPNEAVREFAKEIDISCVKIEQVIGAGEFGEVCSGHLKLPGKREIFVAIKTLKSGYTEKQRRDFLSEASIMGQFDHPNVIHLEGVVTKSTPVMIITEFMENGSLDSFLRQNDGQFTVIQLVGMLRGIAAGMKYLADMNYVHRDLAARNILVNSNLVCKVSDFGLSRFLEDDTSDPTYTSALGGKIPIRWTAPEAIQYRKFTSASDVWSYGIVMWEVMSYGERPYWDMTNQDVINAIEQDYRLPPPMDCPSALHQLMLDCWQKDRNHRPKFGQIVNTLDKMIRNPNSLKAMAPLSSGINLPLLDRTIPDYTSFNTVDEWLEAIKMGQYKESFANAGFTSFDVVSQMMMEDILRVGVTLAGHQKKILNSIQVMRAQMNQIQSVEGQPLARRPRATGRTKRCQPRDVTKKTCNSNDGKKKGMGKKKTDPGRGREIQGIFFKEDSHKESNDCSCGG
# METHOD_DESCRIPTION: phosphorylation enrichment, bacterial display (enrichment ratio); higher = better substrate or ligand; peptides without Tyr show the background
As shown below, each of these sequences has a reported phosphorylation enrichment value.
A bare number is all that is needed in reply.

>  <MONOMER_SEQUENCE>
HNVPIYEGFAL [ACTA1_Y168_YF]

>  <phosphorylation enrichment>
28.1

$$$$
>  <MONOMER_SEQUENCE>
RRIYSYRGHLW [VHL_Y112_H110Y]

>  <phosphorylation enrichment>
0.659

$$$$
>  <MONOMER_SEQUENCE>
SSNLFYRCLTA [CNGA3_Y169_W171C_YF]

>  <phosphorylation enrichment>
0.632

$$$$
>  <MONOMER_SEQUENCE>
SHNKFYMLVAR [MFSD8_Y134_YF]

>  <phosphorylation enrichment>
0.607

$$$$

Q: Name the reported phosphorylation enrichment value associated with the sequence SVVVCYEPPEV [TP53_Y220_P219C]
Result: 0.697

====

# MEASURED_ON: MERTK (UniProt Q12866)
# Sequence (Q12866 whole entry, looked up): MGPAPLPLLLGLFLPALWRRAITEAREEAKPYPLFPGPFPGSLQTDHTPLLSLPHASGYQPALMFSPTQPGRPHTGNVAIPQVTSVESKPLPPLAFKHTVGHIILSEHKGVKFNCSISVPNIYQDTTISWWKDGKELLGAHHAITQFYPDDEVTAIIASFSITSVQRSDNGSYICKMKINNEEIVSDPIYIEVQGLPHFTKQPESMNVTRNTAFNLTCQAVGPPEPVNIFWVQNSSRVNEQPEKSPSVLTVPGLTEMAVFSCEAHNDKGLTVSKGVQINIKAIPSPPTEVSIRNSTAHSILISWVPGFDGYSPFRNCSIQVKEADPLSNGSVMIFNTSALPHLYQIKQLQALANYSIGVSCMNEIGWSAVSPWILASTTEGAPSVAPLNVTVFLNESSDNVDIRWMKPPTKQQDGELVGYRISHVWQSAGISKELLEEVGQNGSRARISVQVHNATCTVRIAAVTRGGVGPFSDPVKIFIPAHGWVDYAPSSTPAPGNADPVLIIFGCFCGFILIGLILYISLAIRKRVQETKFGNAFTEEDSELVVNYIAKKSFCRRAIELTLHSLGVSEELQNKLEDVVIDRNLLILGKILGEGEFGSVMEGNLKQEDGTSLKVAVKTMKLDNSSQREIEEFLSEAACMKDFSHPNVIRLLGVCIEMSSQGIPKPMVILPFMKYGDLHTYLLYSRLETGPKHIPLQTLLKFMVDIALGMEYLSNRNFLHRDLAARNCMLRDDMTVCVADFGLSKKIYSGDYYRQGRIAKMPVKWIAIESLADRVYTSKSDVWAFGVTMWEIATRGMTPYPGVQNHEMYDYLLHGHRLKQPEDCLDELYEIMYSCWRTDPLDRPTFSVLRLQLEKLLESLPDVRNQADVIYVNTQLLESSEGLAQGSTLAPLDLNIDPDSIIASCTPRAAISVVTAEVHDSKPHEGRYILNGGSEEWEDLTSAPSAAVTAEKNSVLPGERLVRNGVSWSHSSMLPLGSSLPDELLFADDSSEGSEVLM
# METHOD_DESCRIPTION: phosphorylation enrichment, bacterial display (enrichment ratio); higher = better substrate or ligand; peptides without Tyr show the background
As shown below, each of these sequences has a reported phosphorylation enrichment value.
A bare number is all that is needed in reply.

>  <MONOMER_SEQUENCE>
QEIATCRRLLE [KRT14_Y415_Y415C]

>  <MEASURED_ON>
MERTK (UniProt Q12866)

>  <RESULT_NUMBER>
0.407

$$$$

Q: Name the reported phosphorylation enrichment value associated with the sequence NTEGGYCCICA [CRELD1_Y328_R329C]
Result: 0.673

Q: Name the reported phosphorylation enrichment value associated with the sequence KDHLDYKFQPR [SOX9_Y172_P170L_YF]
Result: 0.409

Q: Name the reported phosphorylation enrichment value associated with the sequence DGFIDYAEFAK [MCFD2_Y138_YF]
Result: 0.468

Q: Name the reported phosphorylation enrichment value associated with the sequence LDFPEYNGVDR [CASQ1_Y43_D44N]
Result: 2.17

Q: Name the reported phosphorylation enrichment value associated with the sequence KWRGQYDVAIK [BTK_Y425]
Result: 0.463

Q: Name the reported phosphorylation enrichment value associated with the sequence TFHNTYHSHMR [IL1RAPL1_Y615_Q618H]
Result: 0.482

Q: Name the reported phosphorylation enrichment value associated with the sequence TDTQLYGRFGS [ITGA2B_Y384_G380D]
Result: 0.98

Q: Name the reported phosphorylation enrichment value associated with the sequence GSETPYVDRTP [ESS2_Y335]
Result: 0.466

Q: Name the reported phosphorylation enrichment value associated with the sequence PVQAADQKVVA [HBB_Y131_Y131D]
Result: 0.593
